target: Rev-RRE complexes (recombinant Rev protein, synthetic 32P-labelled RRE RNA) (Human immunodeficiency virus type 1 group M subtype B, UniProt P04618); test: Rev-RRE binding inhibition, nitrocellulose filter binding assay with scintillation counting; set-up: species or system Human Immunodeficiency Virus (HIV); details: array assayed at 6 ug/mL, non-specific competitor RNA, read-out: % inh
Sequence (P04618 whole entry, looked up, one chain of several): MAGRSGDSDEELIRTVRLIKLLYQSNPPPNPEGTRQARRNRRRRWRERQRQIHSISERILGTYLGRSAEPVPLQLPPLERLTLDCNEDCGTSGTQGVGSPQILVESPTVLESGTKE
OBSERVATION TYPE: inhibition at 6 µg/mL

Check out these entries, answers already filled in.
O=C(NC(c1ccccc1)c1ccccc1)/C(=C/c1cccc(Cl)c1)NC(=O)c1ccc2ccccc2c1 :: 92%
O=C(Nc1cccnc1)/C(=C/c1ccc(Cl)cc1Cl)NC(=O)c1ccc2ccccc2c1 :: 91%
O=C(N/C(=C\c1cccc(Oc2ccccc2)c1)C(=O)N1CCN(c2ccccc2)CC1)c1ccc(C(F)(F)F)cc1 :: 90%
Cc1ccc(CCNC(=O)/C(=C/c2ccc(-c3ccccc3)cc2)NC(=O)c2ccc(Cl)cc2Cl)cc1 :: 94%
O=C(NCC(c1ccccc1)c1ccccc1)/C(=C/c1cccc(C(F)(F)F)c1)NC(=O)c1ccc2ccccc2c1 :: 93%
O=C(N/C(=C\c1ccc(C(F)(F)F)cc1)C(=O)N1CCC(Cc2ccccc2)CC1)c1ccc2ccccc2c1 :: 91%

Provide reported inhibition at 6 µg/mL for each item, in the same order as listed.
1. COc1cccc(/C=C(\NC(=O)c2ccc3ccccc3c2)C(=O)NC(c2ccccc2)c2ccccc2)c1
2. O=C(NC1CCCc2ccccc21)/C(=C/c1cccc(C(F)(F)F)c1)NC(=O)c1ccc2ccccc2c1 (stereo not shown)
3. O=C(NC1CCCc2ccccc21)/C(=C/c1ccc(C(F)(F)F)cc1)NC(=O)c1ccc(C(F)(F)F)cc1 (stereo not shown)

["94%", "97%", "94%"]
